Provenance of the data: PubChem BioAssay (NCI)

So I've got a bunch of compounds here, and I need their growth values.
System: LOX IMVI melanoma
Assay: NCI-60 one-dose screen, 48 h (100 = growth as untreated, 0 = no growth, -100 = all killed)
Conditions: 10 µM unless noted
This is part of a sample that, as a whole, favours compounds with a hit. Of some 83,000 tested, about 20% had one in any assay. Calls of active or inactive are those of the source. The calls were made as follows: active = growth percent below 10; inactive = the rest.

| compound | growth |
| --- | --- |
| C=CCc1cc2c(cc1OCC)OCO2 | 94.2% (inactive) |

Provide growth values for the following items, in order.
1. CO[C@H](C(=O)O)[C@@H]1Cc2cc3cc(OC4CC(OC5CC(O)C(O)C(C)O5)C(O)C(C)O4)c(C)c(O)c3c(O)c2C(=O)[C@H]1OC1CC(OC2CC(OC3CC(C)(O)C(O)C(C)O3)C(O)C(C)O2)C(O)C(C)O1 (some centres not stated)
2. O=C1C=C(N2C3C4CCC(C4)C32)C(=O)C=C1c1ccccc1 (configuration not stated)

Ans.
1. -6.05% (active)
2. 89.9% (inactive)

* * *

System: 786-0 renal
Assay: NCI-60 one-dose screen, 48 h
Conditions: 10 µM unless noted
This is part of a sample that, as a whole, favours compounds with a hit. Of some 83,000 tested, about 20% had one in any assay. Active and inactive are the calls of the source. The calls were made as follows: active = growth percent below 10; inactive = the rest.
Bench note: report the call from Yes = active, No = inactive

These solved cases illustrate the format of a correct answer.
| molecule | cat |
| --- | --- |
| COc1cc(C=C2c3ccccc3C(=O)c3ccccc32)ccc1OCCCCOc1cc2c(cc1OC)C(=O)N1CCCC1C=N2 (stereo not given) | Yes |
| OCc1ccc2c(c1)OCO2 | No |
| CC(C)(N)Cc1ccccc1 | No |
| CC1CCCC(C[N+](C)(C)C)C1=O (stereo not given) | No |
| O=C1OCC2=C1C(c1ccccc1)c1cc3c(cc1N2)OCO3 (stereo not given) | No |
| COC(=O)[C@@H](C[C@H](Cc1ccccc1)NC(=O)c1csc([C@@H](C[C@H](C(C)C)N(C)C(=O)[C@@H](NC(=O)[C@H]2CCCCN2C)C(C)C)OC(C)=O)n1)NC(=O)OCc1ccccc1 | No |
| NC(=Nc1ccccc1)N[N+](=O)[O-] | No |
| COc1cc(C=Nc2cccc(Br)c2)ccc1N(CCCl)CCCl | No |
| O=NNc1ccccn1 | No |

Qu. State the result this test recorded for C=CC[Se]C(=O)c1ccccc1OC(C)=O .
Ans. Yes

* * *

So I've got a bunch of compounds here, and I need their growth values.
System: KM12 colon
Experiment: NCI-60 one-dose screen, 48 h (100 = growth as untreated, 0 = no growth, -100 = all killed)
Settings: 10 µM unless noted
The panel holds about 83,000 compounds, 20% with a hit somewhere; the sample as a whole holds those more often. The source made the active and inactive calls. Rule for the calls: active = growth percent below 10; inactive = the rest.

| compoundStructure | growth |
| --- | --- |
| C[n+]1c(/C=C/c2ccc(N(CCCl)CCCl)cc2)sc2ccccc21 | 74.8% (inactive) |
| N#C[S-].[Au+].c1ccc(CN2[CH-]N(Cc3ccccc3)C(c3ccccc3)=C2c2ccccc2)cc1 | 14.2% (inactive) |

Please look at the following compound next.
// recorded growth for COc1ccc(/C=C\c2cc(OC)c(OC)c(OC)c2)c(NS(=O)(=O)c2ccc(C)cc2)c1O : 3.96% (active)
